# TEST TARGET: mouse recombinant C0-C2 protein, phospho-mimetic (mC0-C2^DDD) (mouse) (UniProt O70468)
# Sequence (O70468 other isoform, or with tags, fused parts or gaps): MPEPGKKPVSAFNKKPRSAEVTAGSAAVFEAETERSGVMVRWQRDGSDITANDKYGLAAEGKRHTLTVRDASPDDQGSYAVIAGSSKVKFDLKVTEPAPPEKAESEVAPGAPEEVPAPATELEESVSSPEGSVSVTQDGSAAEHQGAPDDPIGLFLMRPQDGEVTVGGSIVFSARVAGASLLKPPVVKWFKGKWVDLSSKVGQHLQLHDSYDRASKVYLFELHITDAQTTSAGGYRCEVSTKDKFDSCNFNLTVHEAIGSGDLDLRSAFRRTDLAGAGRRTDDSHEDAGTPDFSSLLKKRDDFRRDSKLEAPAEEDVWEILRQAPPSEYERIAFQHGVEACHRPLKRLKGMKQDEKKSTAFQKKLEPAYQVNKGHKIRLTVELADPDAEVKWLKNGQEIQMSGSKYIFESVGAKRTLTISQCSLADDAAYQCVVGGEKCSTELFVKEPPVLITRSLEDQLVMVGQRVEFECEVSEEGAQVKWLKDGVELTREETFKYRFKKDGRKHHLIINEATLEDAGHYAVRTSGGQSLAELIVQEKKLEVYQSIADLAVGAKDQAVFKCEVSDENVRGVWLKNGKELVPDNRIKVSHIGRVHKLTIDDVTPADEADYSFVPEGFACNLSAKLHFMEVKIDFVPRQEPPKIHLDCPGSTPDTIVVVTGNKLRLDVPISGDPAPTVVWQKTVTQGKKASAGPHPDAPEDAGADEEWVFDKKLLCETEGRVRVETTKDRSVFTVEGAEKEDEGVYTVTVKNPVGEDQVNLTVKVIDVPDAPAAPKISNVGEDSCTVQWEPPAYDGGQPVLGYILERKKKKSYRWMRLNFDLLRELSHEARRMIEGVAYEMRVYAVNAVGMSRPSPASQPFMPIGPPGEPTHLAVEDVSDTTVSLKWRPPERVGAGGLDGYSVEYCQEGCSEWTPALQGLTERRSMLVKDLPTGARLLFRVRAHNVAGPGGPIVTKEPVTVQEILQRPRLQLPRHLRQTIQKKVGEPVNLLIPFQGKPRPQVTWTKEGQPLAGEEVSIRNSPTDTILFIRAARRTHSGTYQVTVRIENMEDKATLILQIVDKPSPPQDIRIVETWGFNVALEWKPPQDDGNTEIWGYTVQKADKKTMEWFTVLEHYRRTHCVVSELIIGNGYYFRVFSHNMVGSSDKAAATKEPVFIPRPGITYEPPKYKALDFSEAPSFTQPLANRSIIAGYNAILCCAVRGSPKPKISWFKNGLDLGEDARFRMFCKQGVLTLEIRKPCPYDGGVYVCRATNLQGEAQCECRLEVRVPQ
# ASSAY DETAILS: solid-phase binding assay (SPBA); 20 μM C0-C2 (bait) adsorbed onto microtiter plates overnight at 4 °C; 0-20 μM recombinant myosin S2 (prey) added; bound S2 detected with polyclonal anti-S2 antibody and Alexa Fluor 568 secondary antibody; intensity normalised to that at maximal S2; one-phase association fit for Bmax and Kd
# reported Kd; entries follow
QUANTITY KIND: Kd (nM)

BINDER	QUANTITY KIND	REPORTED
human recombinant proximal S2 protein with E924K mutation (hS2^E924K) (domain or fragment, UniProt P12883 838-963, looked up, human β-myosin heavy chain (MYH7), proximal S2, residues 838-963, with the HCM-causing mutation E924K; mutation found in HCM patients, introduced by site-directed mutagenesis; coiled coil in low-salt buffer by CD) PLLKSAEREKEMASMKEEFTRLKEALEKSEARRKELEEKMVSLLQEKNDLQLQVQAEQDNLADAEERCDQLIKNKIQLEAKVKEMNKRLEDEEEMNAELTAKKRKLEDECSELKRDIDDLELTLAK	Kd	740
human recombinant proximal S2 protein with E930Δ mutation (hS2^E930Δ) (domain or fragment, UniProt P12883 838-963, looked up, human β-myosin heavy chain (MYH7), proximal S2, residues 838-963, with the HCM-causing deletion of E930; mutation found in HCM patients, introduced by site-directed mutagenesis; coiled coil in low-salt buffer by CD) PLLKSAEREKEMASMKEEFTRLKEALEKSEARRKELEEKMVSLLQEKNDLQLQVQAEQDNLADAEERCDQLIKNKIQLEAKVKEMNERLEDEEMNAELTAKKRKLEDECSELKRDIDDLELTLAK	Kd	880
human recombinant proximal S2 protein with R870H mutation (hS2^R870H) (domain or fragment, UniProt P12883 838-963, looked up, human β-myosin heavy chain (MYH7), proximal S2, residues 838-963, with the HCM-causing mutation R870H; mutation found in HCM patients, introduced by site-directed mutagenesis; coiled coil in low-salt buffer by CD) PLLKSAEREKEMASMKEEFTRLKEALEKSEARHKELEEKMVSLLQEKNDLQLQVQAEQDNLADAEERCDQLIKNKIQLEAKVKEMNERLEDEEEMNAELTAKKRKLEDECSELKRDIDDLELTLAK	Kd	790
human recombinant proximal S2 WT protein (hS2^Wt) (domain or fragment, UniProt P12883 838-963, looked up, pET28a+ vector; also called WT hS2; human cardiac myosin S2) PLLKSAEREKEMASMKEEFTRLKEALEKSEARRKELEEKMVSLLQEKNDLQLQVQAEQDNLADAEERCDQLIKNKIQLEAKVKEMNERLEDEEEMNAELTAKKRKLEDECSELKRDIDDLELTLAK	Kd	2020
